experimental.target: Aβ1–42 fibrils (Homo sapiens)
Sequence (P05067 672-713): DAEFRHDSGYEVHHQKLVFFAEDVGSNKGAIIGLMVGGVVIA
protocol.text: Disaggregation of self-induced Aβ1–42 aggregation
Format: biochemical
applied.conditions: 25 μM; ThT assay
molecules and their reported Disaggregation of Aβ1–42 aggregation (%) Self-induced
Field format: number, assumed %, no unit text.

Look up Disaggregation of Aβ1–42 aggregation (%) Self-induced: `COc1ccccc1CN(C)CCCOc1ccc(/C=C/C(=O)c2c(O)cc(OC)c(OC)c2OC)cc1`
26.8

###

experimental.target: UniProtKB Q9JKC1
Sequence (Q9JKC1 24-597): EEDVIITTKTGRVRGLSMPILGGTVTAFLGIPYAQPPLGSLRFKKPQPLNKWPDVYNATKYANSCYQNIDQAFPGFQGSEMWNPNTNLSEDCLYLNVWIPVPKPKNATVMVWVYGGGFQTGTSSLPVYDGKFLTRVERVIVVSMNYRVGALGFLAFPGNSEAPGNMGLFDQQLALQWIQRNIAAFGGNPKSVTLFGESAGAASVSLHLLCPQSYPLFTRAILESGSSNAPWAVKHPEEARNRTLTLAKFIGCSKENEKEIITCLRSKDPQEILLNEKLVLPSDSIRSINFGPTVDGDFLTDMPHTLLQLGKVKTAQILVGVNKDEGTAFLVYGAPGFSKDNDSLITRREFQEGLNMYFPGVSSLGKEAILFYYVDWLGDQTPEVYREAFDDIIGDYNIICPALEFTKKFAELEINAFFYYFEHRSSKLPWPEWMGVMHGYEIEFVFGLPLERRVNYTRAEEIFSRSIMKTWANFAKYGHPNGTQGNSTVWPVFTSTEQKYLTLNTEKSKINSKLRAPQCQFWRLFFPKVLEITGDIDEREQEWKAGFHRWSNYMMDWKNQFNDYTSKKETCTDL
protocol.text: Ellman's method, BuChE from rat serum
IC50: recorded values
# output: bare number, implied unit µM

May I ask what IC50 has been recorded for CCN(CCCCOc1ccc(/C=C/C(=O)c2c(O)cc(OC)c(OC)c2OC)cc1)Cc1ccccc1OC [Compound 9d] ?
451

Try CCN(CCCCOc1ccc(/C=C/C(=O)c2c(O)cc(OC)c(O)c2OC)cc1)Cc1ccccc1OC [Compound 17d] next.
406
